- tested.on: hFFA2 (Homo sapiens)
- Construct: expressed in transfected cells; host or cells: Flp-In T-Rex 293 cells, doxycycline-induced
- Sequence (O15552 whole entry): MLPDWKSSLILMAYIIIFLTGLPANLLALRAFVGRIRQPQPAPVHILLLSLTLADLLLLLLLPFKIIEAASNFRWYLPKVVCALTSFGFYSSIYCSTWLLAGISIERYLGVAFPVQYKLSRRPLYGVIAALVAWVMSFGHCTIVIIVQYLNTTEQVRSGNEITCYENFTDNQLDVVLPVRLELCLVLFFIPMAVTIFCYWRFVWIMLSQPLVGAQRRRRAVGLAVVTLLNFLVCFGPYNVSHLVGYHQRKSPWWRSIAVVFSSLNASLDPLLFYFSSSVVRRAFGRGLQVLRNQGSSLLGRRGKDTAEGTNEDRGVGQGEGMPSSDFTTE
- assay.protocol: cAMP assay, antagonist mode, Flp-In T-Rex 293 cells expressing hFFA2-eYFP
- Assay type: cell-based
- assay.setup: hFFA2, antagonist mode, propionate at EC80; mean ± SEM, three or more experiments
value.kind: cAMP pIC50

> print(dat)
                                   compound  value.kind  reported.value
1  O=C(Cc1cccc(Br)c1)N[C@@H](Cc1ccc(C(F)(F)F)cc1)Cc1nnn[nH]1 [Compound 16g]  cAMP pIC50            8.21
2  O=C(N[C@@H](Cc1ccc(C(F)(F)F)cc1)Cc1nnn[nH]1)C1Cc2ccccc21 (some centres unmarked) [Compound 16b]  cAMP pIC50            7.96
3  CCOc1cccc(CC(=O)N[C@@H](Cc2ccc(C(F)(F)F)cc2)Cc2nnn[nH]2)c1 [Compound 16m]  cAMP pIC50            7.77
4  O=C(Cc1ccncc1)N[C@@H](Cc1ccc(C(F)(F)F)cc1)Cc1nnn[nH]1 [Compound 16t]  cAMP pIC50            5.74
5  O=C(Cc1cccc(Cl)c1)N[C@H](CCc1nnn[nH]1)Cc1ccc(C(F)(F)F)cc1 [Compound 21]  cAMP pIC50            7.55
6  O=C(Cc1ccccn1)N[C@@H](Cc1ccc(C(F)(F)F)cc1)Cc1nnn[nH]1 [Compound 16r]  cAMP pIC50            5.93
7  O=C(Cc1cccc(F)c1)N[C@@H](Cc1ccccc1)Cc1nnn[nH]1 [Compound 16d]  cAMP pIC50            6.91
8  O=C(Cc1ccccc1)N[C@@H](Cc1ccc(C(F)(F)F)cc1)Cc1nnn[nH]1 [Compound 16a]  cAMP pIC50            7.89
